molecular target: Full length Akt2 (Homo sapiens, UniProt P31751); construct: Full length Akt1 (cat #P2999), Akt2 (cat #PV3184); purchased PerkinElmer PV3184; experiment: In vitro Akt kinase enzymatic assay (HTRF), Akt2; assay type: biochemical; details: 0.6 nM Akt2, substrate solution with 5 mM ATP, 25° C. 1 hr
Sequence (P31751 whole entry): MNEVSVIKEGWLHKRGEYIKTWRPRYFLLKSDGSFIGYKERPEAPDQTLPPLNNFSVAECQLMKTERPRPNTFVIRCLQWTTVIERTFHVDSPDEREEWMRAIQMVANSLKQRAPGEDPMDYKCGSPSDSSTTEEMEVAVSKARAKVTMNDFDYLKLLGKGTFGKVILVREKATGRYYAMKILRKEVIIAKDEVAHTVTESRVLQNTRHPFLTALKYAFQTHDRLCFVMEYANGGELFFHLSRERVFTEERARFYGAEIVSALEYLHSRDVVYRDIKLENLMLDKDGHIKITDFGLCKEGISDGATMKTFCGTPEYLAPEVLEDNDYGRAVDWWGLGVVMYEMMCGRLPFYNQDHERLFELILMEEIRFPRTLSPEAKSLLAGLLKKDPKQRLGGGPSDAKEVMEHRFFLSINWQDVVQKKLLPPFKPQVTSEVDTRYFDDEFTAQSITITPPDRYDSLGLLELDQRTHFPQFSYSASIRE

molecule | IC50
CC(C)OCc1cnn(C)c1-c1ccc2c(c1)CN([C@H](CN)Cc1cc(F)cc(F)c1)C2=O [Example 45] | < 500 nM
Cn1ncc(Cl)c1-c1ccc2c(c1)CN([C@H](CN)Cc1cccs1)C2=O [Example 67] | < 500 nM
Cn1ncc(C#N)c1-c1ccc2c(c1)CN([C@H](CN)Cc1cc(F)cc(F)c1)C2=O [Example 53] | < 500 nM
Cn1ncc(Cl)c1-c1ccc2c(c1)CN([C@H](CN)Cc1cccc(-c3ccncc3)c1)C2=O [Example 72] | > 5000 nM
